- System: T-47D breast
- Method: NCI-60 one-dose screen, 48 h (100 = growth as untreated, 0 = no growth, -100 = all killed)
- Test settings: 10 µM
This is part of a sample that, as a whole, favours compounds with a hit. Of some 83,000 tested, about 20% had one in any assay.
Quantity name: growth (%)
Give bare numbers, in %.

[
  {
    "Mol": "CCCCCCCCCCCCCCCCCN",
    "growth [%]": 101
  },
  {
    "Mol": "S=c1[nH]nc(Cc2ccccc2)c(=S)[nH]1",
    "growth [%]": 90.4
  }
]

Continue with the next compound.
Enter reported growth observed with T-47D breast for "Cc1cnc(/C=N\NC(N)=S)c2cccc(N)c12"
9.76

---

- System: COLO 205 colon
- Method: NCI-60 one-dose screen, 48 h (100 = growth as untreated, 0 = no growth, -100 = all killed)
- Test settings: 10 µM
This is part of a sample that, as a whole, favours compounds with a hit. Of some 83,000 tested, about 20% had one in any assay. Starred links: 1 amine or outer side, 2 acyl side, 3 side chain; linkers in the order of their positions; H or OH if unused. Positions of bridges follow the written chain, without caps; N, C: chain ends. Non-standard residues stand in square brackets, D forms with d. Residues, ends and D or L forms follow the SMILES beside them. Chains are numbered I, II in the order given. Actinocin(9to1) = Cc1c2oc3c(C)ccc(C(=O)[*:1])c3nc-2c(C(=O)[*:2])c(N)c1=O; aThr = C[C@H](O)[C@H](N)C(=O)O; NMeV = CN[C@H](C(=O)O)C(C)C; Sar = CNCC(=O)O
Please go through the items and note down their growth.
Numbers only, in %.

Reference set (5 entries):
[
  {
    "Compound": "Cc1cnc(/C=N\\NC(N)=S)c2cccc(N)c12",
    "Quantity name": "growth",
    "Observed value": 15.1
  },
  {
    "Compound": "S=c1[nH]nc(Cc2ccccc2)c(=S)[nH]1",
    "Quantity name": "growth",
    "Observed value": 106
  },
  {
    "Compound": "BrC/C=C/C[P+](c1ccccc1)(c1ccccc1)c1ccccc1",
    "Quantity name": "growth",
    "Observed value": 16.5
  },
  {
    "Compound": "Cc1c2oc3c(C)ccc(C(=O)N[C@@H]4C(=O)N[C@H](C(C)C)C(=O)N5CCC[C@H]5C(=O)N(C)CC(=O)N(C)[C@@H](C(C)C)C(=O)O[C@H]4C)c3nc-2c(C(=O)N[C@@H]2C(=O)N[C@H](C(C)C)C(=O)N3CCC[C@H]3C(=O)N(C)CC(=O)N(C)[C@@H](C(C)C)C(=O)O[C@H]2C)c(N)c1=O (I: [aThr][dV]P[Sar][NMeV] / II: [aThr][dV]P[Sar][NMeV]; ester I:1-I:C, II:1-II:C; linker I:N-II:N via Actinocin(9to1))",
    "Quantity name": "growth",
    "Observed value": -56.7
  },
  {
    "Compound": "CN(C)CCC(=O)c1c[nH]c2ccccc12",
    "Quantity name": "growth",
    "Observed value": 111
  }
]

Below: the item to evaluate.
Look up growth: "N#C/C(=C1C=C/C(=N\O)C(Cl)=C\1)c1ccccc1"
38.3
